B1: library; numbered along this chain (parent)
chain: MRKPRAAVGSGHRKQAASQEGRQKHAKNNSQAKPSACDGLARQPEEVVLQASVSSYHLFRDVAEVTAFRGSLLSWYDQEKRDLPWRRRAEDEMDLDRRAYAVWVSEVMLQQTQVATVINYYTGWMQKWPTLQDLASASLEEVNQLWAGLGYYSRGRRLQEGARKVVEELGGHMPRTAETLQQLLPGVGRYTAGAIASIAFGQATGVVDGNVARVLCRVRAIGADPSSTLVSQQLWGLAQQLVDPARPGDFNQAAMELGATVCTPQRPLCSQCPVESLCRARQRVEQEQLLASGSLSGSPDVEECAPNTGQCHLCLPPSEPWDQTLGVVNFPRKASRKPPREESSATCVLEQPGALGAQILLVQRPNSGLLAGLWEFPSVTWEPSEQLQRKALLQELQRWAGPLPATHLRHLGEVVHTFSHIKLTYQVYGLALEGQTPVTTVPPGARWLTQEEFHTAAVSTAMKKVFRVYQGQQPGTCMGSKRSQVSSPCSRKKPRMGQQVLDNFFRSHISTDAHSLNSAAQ

Variants of: B1
procedure.text: 8OG:A repair function score (normalized; synonymous = 0, nonsense = -1) (normalized log-likelihood score); higher = more repair activity (WT-like);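 note: cells sorted at 72 h after reporter transfection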
condition.summary: with 8OG:A DNA repair reporter (GFP) in HEK-293 MUTYH KO cells
measurement.name: 8OG:A repair function score
In your answer, state the number alone without any accompanying words.

Q: Data request, read-out 8OG:A repair function score, for L516A
Ans: 0.017
